tested-on: T1, α4β1 integrin, very late antigen-4 (VLA-4) (UniProt P13612 34-1032; P05556 21-798, limits assumed)
T1 construct: whole, on cells; also called CD49d/CD29
experiment-notes: inhibition of Ramos cell adhesion to BSA-CS1
* marks the point of attachment. 2‑MPUPA = 4-(N′-(2-methylphenyl)urea)phenylacetyl, Cc1ccccc1NC(=O)Nc1ccc(CC(=O)*)cc1; Quinaldoyl = O=C(c1ccc2ccccc2n1)*; Boc = CC(C)(C)OC(=O)*; Bz = O=C(c1ccccc1)*; Ahx = NCCCCCC(=O)O
measure: IC50

Here's what some known entries look like.
binder: {2‑MPUPA}-LPVD-OH (SMILES Cc1ccccc1NC(=O)Nc1ccc(CC(=O)N[C@@H](CC(C)C)C(=O)N2CCC[C@H]2C(=O)N[C@H](C(=O)N[C@@H](CC(=O)O)C(=O)O)C(C)C)cc1) [Compound 341]
IC50: > 10 µM
--
binder: Bz-FLDV-OH (SMILES CC(C)C[C@H](NC(=O)[C@H](Cc1ccccc1)NC(=O)c1ccccc1)C(=O)N[C@@H](CC(=O)O)C(=O)N[C@H](C(=O)O)C(C)C) [Compound 153]
IC50: > 10 µM
--
binder: Boc-LDVM-OMe (SMILES COC(=O)[C@H](CCSC)NC(=O)[C@@H](NC(=O)[C@H](CC(=O)O)NC(=O)[C@H](CC(C)C)NC(=O)OC(C)(C)C)C(C)C) [Compound 167]
IC50: > 10 µM
--
binder: {2‑MPUPA}-VLPD-OH (SMILES Cc1ccccc1NC(=O)Nc1ccc(CC(=O)N[C@H](C(=O)N[C@@H](CC(C)C)C(=O)N2CCC[C@H]2C(=O)N[C@@H](CC(=O)O)C(=O)O)C(C)C)cc1) [Compound 339]
IC50: > 10 µM
--
binder: Ac-FLDV-OH [Compound 152]
IC50: > 10 µM

IN: Reported IC50, binder {2‑MPUPA}-LDVPS-OH [Compound 337] : ____
OUT: < 0.05 µM

IN: Reported IC50, binder Quinaldoyl-LDVM-OMe (SMILES COC(=O)[C@H](CCSC)NC(=O)[C@@H](NC(=O)[C@H](CC(=O)O)NC(=O)[C@H](CC(C)C)NC(=O)c1ccc2ccccc2n1)C(C)C) [Compound 168] : ____
OUT: 0.05 to 10 µM

IN: Reported IC50, binder {2‑MPUPA}-K(Ahx)DVP-OH (SMILES Cc1ccccc1NC(=O)Nc1ccc(CC(=O)N[C@@H](CCCCNC(=O)CCCCCN)C(=O)N[C@@H](CC(=O)O)C(=O)N[C@H](C(=O)N2CCC[C@H]2C(=O)O)C(C)C)cc1) [Compound 202] : ____
OUT: 0.05 to 10 µM

IN: Reported IC50, binder {2‑MPUPA}-MDVP-OH (SMILES CSCC[C@H](NC(=O)Cc1ccc(NC(=O)Nc2ccccc2C)cc1)C(=O)N[C@@H](CC(=O)O)C(=O)N[C@H](C(=O)N1CCC[C@H]1C(=O)O)C(C)C) [Compound 315] : ____
OUT: < 0.05 µM
